# Tgt: dipeptidyl peptidase IV (DPP-IV) (Homo sapiens, UniProt P27487)
# Sequence (P27487 39-766): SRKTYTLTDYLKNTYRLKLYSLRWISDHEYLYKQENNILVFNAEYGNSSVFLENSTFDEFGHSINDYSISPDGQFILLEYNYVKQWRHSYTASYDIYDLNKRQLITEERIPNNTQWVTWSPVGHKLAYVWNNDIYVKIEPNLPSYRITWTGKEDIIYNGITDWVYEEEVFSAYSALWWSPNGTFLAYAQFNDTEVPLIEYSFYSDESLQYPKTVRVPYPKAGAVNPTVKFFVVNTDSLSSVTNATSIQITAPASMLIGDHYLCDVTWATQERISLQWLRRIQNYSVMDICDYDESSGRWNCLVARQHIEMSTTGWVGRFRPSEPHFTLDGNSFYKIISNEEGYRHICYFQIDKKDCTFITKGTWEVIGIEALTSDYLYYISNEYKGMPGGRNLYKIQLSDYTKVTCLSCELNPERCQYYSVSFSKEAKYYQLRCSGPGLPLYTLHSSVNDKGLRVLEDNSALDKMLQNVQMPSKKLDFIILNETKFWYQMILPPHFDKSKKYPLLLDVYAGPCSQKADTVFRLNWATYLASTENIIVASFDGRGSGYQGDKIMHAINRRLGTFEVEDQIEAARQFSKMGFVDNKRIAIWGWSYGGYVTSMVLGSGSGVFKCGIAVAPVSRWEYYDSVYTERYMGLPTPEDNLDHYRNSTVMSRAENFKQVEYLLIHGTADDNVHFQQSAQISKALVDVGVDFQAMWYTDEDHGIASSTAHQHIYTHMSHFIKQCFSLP
# Test Description: Gly-Pro-pNA chromogenic assay with recombinant enzyme
Listed compounds paired with reported pIC50
Kindly note that pIC50 refers to -log10 of the concentration in mol/L and answer with the value alone.

A selection of reference data follows.
C=C(C)[C@@H]1CCC(C)=C[C@H]1c1c(O)cc(CCCCC)cc1O [CBD, cannabidiol]: 4.66
CCCCCc1cc(O)c(C/C=C(\C)CCC=C(C)C)c(O)c1 [CBG, cannabigerol]: 4.69

# pIC50 of CCCCCc1cc(O)c2c(c1)OC(C)(C)c1ccc(C)cc1-2 [CBN, cannabinol] = 4.89
